- procedure summary: protein stability index of a GFP-peptide fusion (GPS, HEK-293T) (PSI 1-6); higher = more stable;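 note: 24-mer peptide tiles fused after GFP, lentivirally expressed, FACS-sorted into six equal bins by GFP/DsRed ratio, decoded by Illumina sequencing, PSI is the read-weighted mean bin number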
- study conditions: treatment: DMSO; c terminus: a fixed tail appended
Decide using protein stability index: a value greater than or equal to 3 is Condition met, a smaller one is Condition not met.

1. AANHWVLPAAEFHGLWDSLVYDVE [TRIP13] : Condition not met
2. TLGGELGALEALELSPPLSPASHV [FOXJ1] : Condition met
3. LDKSTKLVETAIQSLDEPGGATFL [TRIM63] : Condition met
4. DNLGYRTGYPYRYPALREKSKKYS [ADD1] : Condition met
5. GAHFPQVPGGAVRVAAAAGSGPSP [PI4K2A] : Condition met
6. HNLIEQVSLGLGQPWHAVMDIESL [FBXO33] : Condition not met
7. AHDNSEELERARELKEKEATLCLE [ANKRD44] : Condition met
8. EKMEEEEQTCDPDSSLHWSSSYSP [ZNF396] : Condition met
9. TFFEVSPLCNFNIIESFTELARIV [RAB40A] : Condition not met
10. VKFCLLGALLAPIRVLLAFIVLFL [LPCAT4] : Condition not met
11. GVWHQMGTDGYMPRELASMSLVLH [KLHDC10] : Condition not met
12. ERCFRGSSYPVCVSKVVKGGSSGK [OAS1] : Condition met
13. IDAIYSVIDDAKQYVYIAVMDYLP [PLD5] : Condition met
14. GTSHGAPPARGPRMSYGGSTCHAY [RBMY1A1] : Condition met
15. LVVHTGCKDFLCQFCAQRFGRKDH [PLAGL1] : Condition not met
16. NFQNIPKETELPFPKQILDQNNVI [MIA2] : Condition met
17. HCRENAHDKIRPISSIGQVQSYME [SPACA9] : Condition met
18. HLSRQKIDPLLYMTEWFMCAFSRT [TBC1D10A] : Condition not met
19. TGIIDSLTISPKAARVGLLQYSTQ [MATN2] : Condition not met
20. FLCLQYRLRGKLRAEIENLHRTFD [MOG] : Condition not met
21. RSRIEEQSQLICILKRRSDEALER [CCDC89] : Condition met
22. PADGWKGERPRSEEDNELNLPNLA [GCH1] : Condition met
23. IIEVLSNALSKSSAPPITPECRQV [CHGB] : Condition not met
24. LFDTKHDVYSFAIVIWGVLTQKKP [RIPK4] : Condition not met
25. EPPPALPPAADAPVTQIGFEAPPL [TRIM55] : Condition met
26. VGLAAVNSMPVDNRNHNEGMVTRC [CHGB] : Condition met
27. TISFRIYKSVLQAVQKTDEGHPFK [RTN1] : Condition not met
28. DKKTCTKIDYCASSNHGCQHECVN [MATN2] : Condition met
29. EFNGLKKMNPKLKTLLAIGGWNFS [CHIT1] : Condition not met
30. WDLRFRIIHETAVGMNFLHCMAPP [RIPK4] : Condition not met
31. EAAGESLEEEIRRKQILLRGKLKK [ZC2HC1C] : Condition met
32. PHIEEQQKKIESYLHNHFIGEGMT [TENT5D] : Condition met
33. WFLNALHSALGGTKKKKKTIVTDV [USP39] : Condition not met
34. FKPKNEEPYGHLNPKWTKWLQKLC [PI4K2A] : Condition not met
35. FQKSHNSLQRWEHLKKVASRYQNN [PRIM1] : Condition not met
36. YVPNMLGIIPYAGIDLAVYETLKN [SLC25A25] : Condition not met
37. GGATFLLTAKQLIKSIVEASKGCQ [TRIM63] : Condition not met
38. YEETGFYEIEIQAEDGGAYLATAK [PCDHGA10] : Condition met
39. LRQRRPLRPQVVTDDDGQAPEAKD [APMAP] : Condition met
40. VIKGVLFRIFIIWAISSWFRRGPA [CLPTM1] : Condition not met
41. VVPDVRSVVTTARMQVLKRQVQSL [SMARCE1] : Condition not met

###

Listed below: protein stability index values for each entry.
- procedure summary: protein stability index of a GFP-peptide fusion (GPS, HEK-293T) (PSI 1-6); higher = more stable
- study conditions: treatment: MLN4924 1 uM, 8 h; c terminus: a fixed tail appended
measurement label: protein stability index

1) DKFKRPTPPPSPNTQTPVQPPPPP [CCDC6] : 5.12
2) EGPKRELGVRRPGGAGKEGVRVNN [TCF25] : 5.04
3) TLEEKFSDVHPVALNFMKGCLKMN [CDKL4] : 3.16
4) DDSVMKATQQARKRNFISSKSKQP [C22orf31] : 4.98
5) VTYSLLKRLKERSLDTLLEAVESR [SMAD6] : 2.33
6) RIFAQYMVPHNLETTERMKCLYYL [PDS5B] : 2.36
7) GCRTTHSNQEVLQSCLLVIFATKP [PYCR3] : 2.65
8) PSFHPHAGGGSQENLDNDTETDSL [DVL3] : 5.5
9) EELEEDIRKKLKDSGDVSNVIEKV [RHOBTB3] : 5.5
10) MASTTTCTRFTDEYQLFEELGKGA [CAMK2D] : 3.64
11) SAMAENILAAACESETRKAAKRMR [NOL4L] : 4.69
12) LLRHRMNWLGRPSKVLSLQDLCCR [RAB40A] : 2.71
13) TEDEKKELENLAAMDLELQKIAEK [CHGB] : 5.57
14) APIDWIEEYTTGMADCILVNSQFT [ALG2] : 2.81
15) NIMPYESTRVCLQPIRGVEGSDYI [PTPRD] : 3.09
16) QASEREAPSIEQRLQEVRESIRRA [FCHSD1] : 5
17) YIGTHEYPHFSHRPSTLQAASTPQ [OAS1] : 3.16
18) LGDKGLSDTPYDSSASYEKENEMM [IKZF1] : 5.26
19) IPQQQGMRPPMPPHGQYGGHHQGM [ZNF207] : 3.88
20) IIEVLSNALSKSSAPPITPECRQV [CHGB] : 2.32
21) YRFDSSSCSSEDNLSLVCLPRSED [DRICH1] : 4.51
22) AKMGATKEEREDTPIQLQELLALE [TCAP] : 5.15
23) RAARDYKIQNHGHRVLQRLEQRRQ [FCHSD1] : 4.07
24) GVWHQMGTDGYMPRELASMSLVLH [KLHDC10] : 2.06
25) VLKLLLLLLLFGVAGGLVACRVTE [LRRC59] : 2.68
26) ADWFMSLGVGLLTFASLETVGIYF [TMEM40] : 3.04
27) NFSLATNTKYSVYIYVYFHTKLTS [R3HDM1] : 2.36
28) GTSALWRHLRSAHRRELESSGAGS [ZBED3] : 4.1
29) SHECKPEGYEFCHNRKVLTIFSAS [PPEF2] : 2.76
30) IHTGIKPHQCSECGRAFSRKSLLV [ZNF649] : 2.18
31) YRTWNVVVHDWLYSYVYQDGLRLL [SOAT2] : 2.82
32) FEKLLQLTSQNIEIKLVSDVTADS [PLD5] : 2.72
33) ISVILPTVHEVDIFRCFCPVFLHS [DENND6A] : 3
34) FMQTGYNKLCDWWSLGVIMYEMLI [STK38L] : 2.47
35) TISFRIYKSVLQAVQKTDEGHPFK [RTN1] : 2.28
36) LQHEERETRQKKLEVAMEEEGLAD [STK38L] : 5.56
37) YGQFTCEGCKSFFKRSVRRNLSYT [NR2F2] : 2.33
38) RIPGAWSCAWSLNIQANNCFSTGL [DCAF4] : 2.69
39) SLALDIDRDAEDQNRYLDGMVRAH [BET1L] : 4.39
40) QPCNPPAPAGDKGFQPPSPSLRPR [DMRTC1] : 5.15
41) ESSILGTDIDLQTIDNDIVSMEIF [M1AP] : 3.74
42) NIGKSHQGLKLYAVEISDHPGEHE [CPXM2] : 4.07
43) QRKKWVDLAWMITFYVRFFLTYVP [FADS1] : 2.83
44) YMAICKPLHELITMNRRVCVLMLL [OR4A15] : 2.35
45) AANHWVLPAAEFHGLWDSLVYDVE [TRIP13] : 2.66
46) QVKFGQQNPRQVAQSEAEKKLKKD [ZC3H15] : 5.37

###

Listed below: protein stability index values for each entry.
- procedure summary: protein stability index of a GFP-peptide fusion (GPS, HEK-293T) (PSI 1-6); higher = more stable
- study conditions: treatment: MLN4924 1 uM, 8 h; c terminus: a fixed tail appended
measurement label: protein stability index

1) LVLYPTSLAIFSEELDGLCFKGEL [PLEKHN1] : 2.96
2) KEFTLLLSAANVCLDPIIYFFLCQ [P2RY14] : 2.97
3) LLQLPDTKVGSFMIRESETKKGFY [SLA] : 2.95
